Values from paper PMC11468294

# protocol_summary: Microscopic aggregation (fluorescence / confocal microscopy, derived count rate)
# Assay type: physicochemical
# condition_notes: fibrils preformed at 1 mg mL-1 in PBS; ThT or Proteostat stain, widefield or confocal microscopy; derived count rate > 1000 kcps as criterion
Where a SMILES comes first, the peptide text is derived from it. The star is where a group is joined. Palmitoyl = CCCCCCCCCCCCCCCC(=O)*
test_readout: formation of µm-sized aggregates (in words)

[[record]]
compound = "CCCCCCCCCCCCCCCC(=O)N[C@H](C(=O)N[C@H](C(=O)N[C@@H](C)C(=O)N[C@@H](C)C(=O)N[C@@H](Cc1c[nH]cn1)C(=O)N[C@@H](Cc1c[nH]cn1)C(=O)N[C@@H](Cc1c[nH]cn1)C(N)=O)C(C)C)C(C)C [C16-VVAAHHH-NH2] (Palmitoyl-VVAAHHH-NH2)"
endpoint_value = "very large aggregates"

[[record]]
compound = "CCCCCCCCCCCCCCCC(=O)N[C@@H](CC(N)=O)C(=O)N[C@@H](Cc1ccccc1)C(=O)N[C@@H](Cc1ccc(O)cc1)C(=O)N[C@@H](CC(C)C)C(=O)N[C@@H](CCC(N)=O)C(=O)N[C@H](C(=O)N[C@@H](CC(N)=O)C(=O)N[C@@H](CCCCN)C(=O)N[C@H](C(=O)N[C@@H](CC(N)=O)C(=O)N[C@@H](CCCCN)C(N)=O)[C@@H](C)CC)C(C)C (Palmitoyl-NFYLQVNKINK-NH2)"
endpoint_value = "very large aggregates"

[[record]]
compound = "CCCCCCCCCCCCCCCC(=O)N[C@@H](C)C(=O)N[C@@H](C)C(=O)N[C@H](C(=O)N[C@H](C(=O)N[C@@H](Cc1c[nH]cn1)C(=O)N[C@@H](Cc1c[nH]cn1)C(=O)N[C@@H](CCCCN)C(N)=O)C(C)C)C(C)C [C16-AAVVHHK-NH2] (Palmitoyl-AAVVHHK-NH2)"
endpoint_value = "very large aggregates"


====

# Tested on: HeLa cells
# Type: in vitro ADME
# condition_notes: HeLa cells, 2 µg peptide added to 20,000 cells, d0 (30 min) vs d3; degradable if number and size of aggregates are reduced after 3 days
Where a SMILES comes first, the peptide text is derived from it. The star is where a group is joined. Palmitoyl = CCCCCCCCCCCCCCCC(=O)*
test_readout: degradability by cells (in words)

[[record]]
compound = "CCCCCCCCCCCCCCCC(=O)N[C@@H](C)C(=O)N[C@@H](C)C(=O)N[C@H](C(=O)N[C@H](C(=O)N[C@@H](Cc1c[nH]cn1)C(=O)N[C@@H](Cc1c[nH]cn1)C(=O)N[C@@H](CCCCN)C(N)=O)C(C)C)C(C)C [C16-AAVVHHK-NH2] (Palmitoyl-AAVVHHK-NH2)"
endpoint_value = "degraded incompletely"

[[record]]
compound = "CCCCCCCCCCCCCCCC(=O)N[C@@H](CCCCN)C(=O)N[C@@H](Cc1ccc(O)cc1)C(=O)N[C@H](C(=O)N[C@@H](Cc1c[nH]cn1)C(=O)N[C@@H](CCC(N)=O)C(=O)N[C@@H](CC(N)=O)C(=O)N[C@@H](Cc1ccc(O)cc1)C(=O)N[C@H](C(=O)N[C@@H](CCCCN)C(=O)N[C@@H](C)C(=O)N[C@@H](CC(C)C)C(=O)N[C@@H](C)C(=O)NCC(=O)N[C@@H](CCCCN)C(=O)N[C@@H](CC(C)C)C(=O)N[C@H](C(N)=O)C(C)C)[C@@H](C)O)[C@@H](C)CC (Palmitoyl-KYIHQNYTKALAGKLV-NH2)"
endpoint_value = "degraded incompletely"

[[record]]
compound = "CCCCCCCCCCCCCCCC(=O)N[C@@H](CC(N)=O)C(=O)N[C@@H](Cc1ccccc1)C(=O)N[C@@H](Cc1ccc(O)cc1)C(=O)N[C@@H](CC(C)C)C(=O)N[C@@H](CCC(N)=O)C(=O)N[C@H](C(=O)N[C@@H](CC(N)=O)C(=O)N[C@@H](CCCCN)C(=O)N[C@H](C(=O)N[C@@H](CC(N)=O)C(=O)N[C@@H](CCCCN)C(N)=O)[C@@H](C)CC)C(C)C (Palmitoyl-NFYLQVNKINK-NH2)"
endpoint_value = "degraded incompletely"


====

# protocol_summary: Microscopic aggregation (fluorescence / confocal microscopy, derived count rate)
# Assay type: physicochemical
# condition_notes: fibrils preformed at 1 mg mL-1 in PBS; ThT or Proteostat stain, widefield or confocal microscopy; derived count rate > 1000 kcps as criterion
Where a SMILES comes first, the peptide text is derived from it. The star is where a group is joined. Palmitoyl = CCCCCCCCCCCCCCCC(=O)*
test_readout: formation of µm-sized aggregates (in words)

[[record]]
molecule = "CCCCCCCCCCCCCCCC(=O)N[C@@H](CCCCN)C(=O)N[C@@H](Cc1ccc(O)cc1)C(=O)N[C@H](C(=O)N[C@@H](Cc1c[nH]cn1)C(=O)N[C@@H](CCC(N)=O)C(=O)N[C@@H](CC(N)=O)C(=O)N[C@@H](Cc1ccc(O)cc1)C(=O)N[C@H](C(=O)N[C@@H](CCCCN)C(=O)N[C@@H](C)C(=O)N[C@@H](CC(C)C)C(=O)N[C@@H](C)C(=O)NCC(=O)N[C@@H](CCCCN)C(=O)N[C@@H](CC(C)C)C(=O)N[C@H](C(N)=O)C(C)C)[C@@H](C)O)[C@@H](C)CC (Palmitoyl-KYIHQNYTKALAGKLV-NH2)"
endpoint_value = "very large aggregates"

[[record]]
molecule = "CCCCCCCCCCCCCCCC(=O)N[C@@H](CCCCN)C(=O)N[C@H](C(=O)N[C@H](C(=O)N[C@@H](CO)C(=O)N[C@@H](Cc1ccccc1)C(=O)N[C@@H](CCCCN)C(N)=O)[C@@H](C)CC)[C@@H](C)CC [C16-KIISFK-NH2] (Palmitoyl-KIISFK-NH2)"
endpoint_value = "very large aggregates"

